Can you tell me pIC50 for the items I'm about to list?
target.system: ErbB2 with Exon 20 YVMA insertion (HER2-YVMA) (Homo sapiens (Human), UniProt P04626, INS775YVMA)
Sequence (P04626 other isoform, or with tags, fused parts or gaps ins YVMA behind 775): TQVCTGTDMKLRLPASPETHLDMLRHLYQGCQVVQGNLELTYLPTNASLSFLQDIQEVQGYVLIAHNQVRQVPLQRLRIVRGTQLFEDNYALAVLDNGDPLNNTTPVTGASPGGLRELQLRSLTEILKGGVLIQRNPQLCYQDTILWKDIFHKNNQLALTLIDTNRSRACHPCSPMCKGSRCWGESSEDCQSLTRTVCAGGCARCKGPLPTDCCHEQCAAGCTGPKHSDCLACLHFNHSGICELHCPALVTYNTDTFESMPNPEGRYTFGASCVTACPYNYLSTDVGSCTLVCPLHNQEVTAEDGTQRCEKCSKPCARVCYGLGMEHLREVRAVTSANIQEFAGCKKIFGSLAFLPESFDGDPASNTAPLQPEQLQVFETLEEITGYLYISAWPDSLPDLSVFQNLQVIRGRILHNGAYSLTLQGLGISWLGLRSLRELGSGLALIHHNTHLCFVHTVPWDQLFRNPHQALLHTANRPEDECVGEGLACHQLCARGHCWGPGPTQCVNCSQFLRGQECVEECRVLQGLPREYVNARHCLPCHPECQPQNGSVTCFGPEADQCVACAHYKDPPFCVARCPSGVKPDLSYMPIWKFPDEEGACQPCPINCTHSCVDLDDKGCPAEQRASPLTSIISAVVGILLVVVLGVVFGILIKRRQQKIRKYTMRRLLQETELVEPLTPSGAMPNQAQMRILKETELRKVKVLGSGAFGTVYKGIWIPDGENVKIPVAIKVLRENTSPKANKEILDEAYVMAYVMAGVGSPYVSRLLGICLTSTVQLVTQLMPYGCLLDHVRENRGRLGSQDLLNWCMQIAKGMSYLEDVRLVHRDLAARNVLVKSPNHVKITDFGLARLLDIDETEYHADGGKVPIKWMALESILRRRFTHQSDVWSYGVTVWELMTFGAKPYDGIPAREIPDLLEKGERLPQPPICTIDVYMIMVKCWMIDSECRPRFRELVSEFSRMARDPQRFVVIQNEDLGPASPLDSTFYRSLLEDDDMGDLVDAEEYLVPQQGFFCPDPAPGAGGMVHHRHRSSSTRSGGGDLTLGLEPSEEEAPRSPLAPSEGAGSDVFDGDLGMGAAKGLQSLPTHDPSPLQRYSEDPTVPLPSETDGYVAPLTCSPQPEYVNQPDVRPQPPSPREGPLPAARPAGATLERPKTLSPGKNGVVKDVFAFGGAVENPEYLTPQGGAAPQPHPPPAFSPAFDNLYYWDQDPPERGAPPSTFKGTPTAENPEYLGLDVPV
test.protocol: Cellular phosphorylation assay, constitutive ErbB2 phosphorylation (Y1196) in engineered NIH 3T3 cells, Assay 4
Answers are plain numbers, as −log10 of the molar value.

Sample records with pIC50:
{"molecule": "Cc1cc(Nc2ncnc3cnc(O[C@H]4CNCC4(F)F)nc23)ccc1Oc1ccc2c(c1)ncn2C [Example 303]", "pIC50": 6.59}
{"molecule": "Cc1cc(Nc2ncnc3cnc(N4CC5(CC5)CS4(=O)=O)nc23)ccc1Oc1ccc2c(c1)ncn2C [Example 264]", "pIC50": 8.18}
{"molecule": "CSc1ncc2ncnc(Nc3ccc(Oc4ccc5conc5c4)c(C)c3)c2n1 [Example 10]", "pIC50": 6.17}
{"molecule": "Cc1cc(Nc2ncnc3cnc(N4CCC(CC#N)C4)nc23)ccc1Oc1ccc2c(c1)ncn2C (stereo not shown) [Example 192]", "pIC50": 7.88}

Return reported pIC50 values for all items listed beneath this line.
1. Cc1cc(Nc2ncnc3cnc(N4CCC[C@H]4C(C)(C)O)nc23)ccc1Oc1ccc2c(c1)ncn2C [Example 408]
2. Cc1cc(Nc2ncnc3cnc(N4CC5(CC(O)C5)C4)nc23)ccc1Oc1ccc2c(c1)ncn2C [Example 213]
3. Cc1cc(Nc2ncnc3cnc(N(C)C4CC4)nc23)ccc1Oc1ccc2c(c1)ncn2C [Example 31]
4. Cc1cc(Nc2ncnc3cnc(N4CCCO4)nc23)ccc1Oc1ccn2ncnc2c1 [Example 428]

1. 7.38
2. 7.47
3. 7.63
4. 6.50

Return reported pIC50 values for all items listed beneath this line.
1. COCCOc1ncc2ncnc(Nc3ccc(Oc4ccc5c(c4)ncn5C)c(C)c3)c2n1 [Example 76, 2,2,2-trifluoroacetate]
2. Cn1cnc2cc(Oc3ccc(Nc4ncnc5cnc(N6CC[C@@H](C#N)C6)nc45)cc3Cl)ccc21 [Example 444]
3. CO[C@@H]1CN(c2ncc3ncnc(Nc4ccc(Oc5ccc6c(c5)ncn6C)c(C)c4)c3n2)C[C@H]1O (racemic) [Example 107]
4. CN(C)c1ncc2ncnc(Nc3ccc(Oc4ccn5ncnc5c4)c(Cl)c3)c2n1 [Example 396]
5. Cc1cc(Nc2ncnc3cnc(N4CC5CC(C4)O5)nc23)ccc1Oc1ccn2ncnc2c1 [Example 135]
6. FC(F)[C@H]1CCN1c1ncc2ncnc(Nc3ccc(Oc4ccn5ncnc5c4)c(Cl)c3)c2n1 [Example 410]
7. COC[C@@H](C)Nc1ncc2ncnc(Nc3ccc(Oc4ccc5c(c4)ncn5C)c(C)c3)c2n1 [Example 61]
8. Cc1cc(Nc2ncnc3cnc(N4CC5CC5(C)C4)nc23)ccc1Oc1ccc2c(c1)ncn2C (stereo not shown) [Example 225]

1: 5.89; 2: 7.38; 3: 7.50; 4: 7.62; 5: 6.29; 6: 6.68; 7: 7.31; 8: 7.07

* * *

EGFR (Homo sapiens (Human)): reported IC50 for various compounds.
Sequence (P00533 25-1210): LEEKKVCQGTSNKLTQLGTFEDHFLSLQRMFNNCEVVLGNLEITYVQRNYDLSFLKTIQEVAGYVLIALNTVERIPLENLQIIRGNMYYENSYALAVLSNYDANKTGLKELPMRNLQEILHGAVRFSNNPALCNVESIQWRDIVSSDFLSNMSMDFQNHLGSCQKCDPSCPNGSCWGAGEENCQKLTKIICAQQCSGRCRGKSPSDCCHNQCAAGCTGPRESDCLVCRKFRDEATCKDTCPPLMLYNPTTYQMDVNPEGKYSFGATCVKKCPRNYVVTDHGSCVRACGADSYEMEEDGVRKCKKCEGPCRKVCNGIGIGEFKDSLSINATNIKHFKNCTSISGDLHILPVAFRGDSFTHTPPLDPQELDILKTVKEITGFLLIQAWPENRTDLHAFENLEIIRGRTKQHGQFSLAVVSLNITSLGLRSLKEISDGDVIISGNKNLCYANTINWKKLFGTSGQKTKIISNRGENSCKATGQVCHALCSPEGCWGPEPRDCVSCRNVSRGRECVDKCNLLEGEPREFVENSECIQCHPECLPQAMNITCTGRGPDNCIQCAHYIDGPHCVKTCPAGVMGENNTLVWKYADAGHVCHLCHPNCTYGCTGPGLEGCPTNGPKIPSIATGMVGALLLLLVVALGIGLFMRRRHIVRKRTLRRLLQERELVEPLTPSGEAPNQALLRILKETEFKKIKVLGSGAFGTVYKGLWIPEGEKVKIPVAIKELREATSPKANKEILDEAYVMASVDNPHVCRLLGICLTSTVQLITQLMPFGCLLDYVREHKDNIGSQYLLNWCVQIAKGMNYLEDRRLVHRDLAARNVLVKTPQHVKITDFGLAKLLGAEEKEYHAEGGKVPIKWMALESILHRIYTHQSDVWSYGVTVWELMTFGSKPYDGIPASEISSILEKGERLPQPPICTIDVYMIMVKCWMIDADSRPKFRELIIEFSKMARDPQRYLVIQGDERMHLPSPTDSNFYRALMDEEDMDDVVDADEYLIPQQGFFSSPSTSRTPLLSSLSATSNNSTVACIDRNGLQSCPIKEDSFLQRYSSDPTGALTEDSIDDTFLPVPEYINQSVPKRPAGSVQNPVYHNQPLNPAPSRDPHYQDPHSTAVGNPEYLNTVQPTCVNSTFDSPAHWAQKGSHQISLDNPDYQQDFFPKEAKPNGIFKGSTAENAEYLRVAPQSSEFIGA

Sample records with IC50:
{"compound": "Cc1cc(Nc2ncnc3cnc(N(C)[C@H]4CCCOC4)nc23)ccc1Oc1ccn2ncnc2c1", "recorded.value": "1.29 µM"}
{"compound": "Cn1cnc2cc(Oc3ccc(Nc4ncnc5cnc(N6CC[C@@H](C#N)C6)nc45)cc3Cl)ccc21", "recorded.value": "≥ 10 µM"}

// below: IC50 requested for another compound
Requested read-out: IC50. Entry: COC[C@H](O)CN(C)c1ncc2ncnc(Nc3ccc(Oc4ccc5c(c4)ncn5C)c(C)c3)c2n1 (racemic) 4.15 µM
